// data source = patent US10525055B2

Assay: Polymorph screening of solid state drug substances
Settings: Heptane; stirred 50 °C 72 hours, solids dried
experimental.endpoint: XRPD results (Dried)

smi	test.value
C=C1CC[C@@]2(O)C3Cc4ccc(OC(=O)NC(C)(C)C)c5c4[C@@]2(CCN3CC2CC2)[C@H]1O5	Pattern A
C=C1CC[C@@]2(O)C3Cc4ccc(OC(=O)OCCCCCCCCCCCCCCCC)c5c4[C@@]2(CCN3CC2CC2)[C@H]1O5	Pattern A

* * *

Assay: Polymorph screening of solid state drug substances
Conditions: Heptane; target conc. 100 mg/ml; 50 °C

compound	Visual observation 50° C.
C=C1CC[C@@]2(O)C3Cc4ccc(OC(=O)NC(C)(C)C)c5c4[C@@]2(CCN3CC2CC2)[C@H]1O5 [Compound 40]	Slurry
CCCCCCCCCCCCCCCC(=O)Oc1ccc2c3c1O[C@H]1C(=O)CC[C@@]4(O)C(C2)N(CC2CC2)CC[C@]314 [Compound 55]	Clear
C=C1CC[C@@]2(O)C3Cc4ccc(OC(=O)CCCCCCCCCCCCCCCCCCC)c5c4[C@@]2(CCN3CC2CC2)[C@H]1O5 [Compound 16]	Slurry
